Data provenance: patent US10045974B2

molecular target: BACE1 (Homo sapiens (Human), UniProt P56817); experiment: BACE1 efficacy assay (FRET-based, commercial BACE1 kit); format: biochemical; settings: test compound 10 μM
Sequence (P56817 46-501): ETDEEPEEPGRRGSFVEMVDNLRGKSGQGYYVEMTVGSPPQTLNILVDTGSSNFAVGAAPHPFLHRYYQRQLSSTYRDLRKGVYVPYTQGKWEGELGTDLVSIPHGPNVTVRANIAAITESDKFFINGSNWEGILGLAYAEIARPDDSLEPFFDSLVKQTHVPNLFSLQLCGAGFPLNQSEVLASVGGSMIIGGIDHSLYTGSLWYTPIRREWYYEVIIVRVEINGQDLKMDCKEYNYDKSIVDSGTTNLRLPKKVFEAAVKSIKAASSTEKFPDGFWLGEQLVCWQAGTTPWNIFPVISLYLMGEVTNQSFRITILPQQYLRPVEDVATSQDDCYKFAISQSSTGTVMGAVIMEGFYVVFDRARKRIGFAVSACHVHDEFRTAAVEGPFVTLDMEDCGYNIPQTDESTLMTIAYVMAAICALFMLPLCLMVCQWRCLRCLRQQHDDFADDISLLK
inhibition at 10 µM values by entry
Provide the reading as a plain figure in %.

# count of solved cases: 5
- smiles.str: "Cc1nc(C(=O)Nc2ccc(F)c([C@@]3(C(F)F)N=C(N)CCC3(F)F)c2)co1"
  target.of.assay: "BACE1 (Homo sapiens (Human), UniProt P56817)"
  inhibition at 10 µM [%]: 104
- smiles.str: "COc1cnc(C(=O)Nc2ccc(F)c([C@@]3(C(F)F)N=C(N)CCC3(F)F)c2)nc1"
  target.of.assay: "BACE1 (Homo sapiens (Human), UniProt P56817)"
  inhibition at 10 µM [%]: 103
- smiles.str: "[2H]C([2H])([2H])Oc1ccc(C(=O)Nc2ccc(F)c([C@@]3(C(F)F)N=C(N)CCC3(F)F)c2)nc1"
  target.of.assay: "BACE1 (Homo sapiens (Human), UniProt P56817)"
  inhibition at 10 µM [%]: 103
- smiles.str: "[2H]C([2H])([2H])Oc1cnc(C(=O)Nc2ccc(F)c([C@@]3(C(F)F)N=C(N)CCC3(F)F)c2)cn1"
  target.of.assay: "BACE1 (Homo sapiens (Human), UniProt P56817)"
  inhibition at 10 µM [%]: 108
- smiles.str: "NC1=N[C@@](c2cc(NC(=O)c3ccc(F)cn3)ccc2F)(C(F)F)C(F)(F)CC1"
  target.of.assay: "BACE1 (Homo sapiens (Human), UniProt P56817)"
  inhibition at 10 µM [%]: 100

// fetch BACE1 (Homo sapiens (Human), UniProt P56817) inhibition at 10 µM for `COc1cnc(C(=O)Nc2ccc(F)c([C@@]3(C(F)F)N=C(N)CCC3(F)F)c2)c(C)n1`
106

Query inhibition at 10 µM on BACE1 (Homo sapiens (Human), UniProt P56817) for `Cc1csc(C(=O)Nc2ccc(F)c([C@@]3(C(F)F)N=C(N)CCC3(F)F)c2)n1`
102

Value wanted: inhibition at 10 µM (BACE1 (Homo sapiens (Human), UniProt P56817)) of entry `COc1cnc(C(=O)Nc2ccc(F)c([C@@]3(C(F)F)N=C(N)CCC3(F)F)c2)cn1`
103
